- Target of assay: EZH2 (rPRC2) (Homo sapiens, UniProt Q15910)
- Sequence (Q15910 whole entry): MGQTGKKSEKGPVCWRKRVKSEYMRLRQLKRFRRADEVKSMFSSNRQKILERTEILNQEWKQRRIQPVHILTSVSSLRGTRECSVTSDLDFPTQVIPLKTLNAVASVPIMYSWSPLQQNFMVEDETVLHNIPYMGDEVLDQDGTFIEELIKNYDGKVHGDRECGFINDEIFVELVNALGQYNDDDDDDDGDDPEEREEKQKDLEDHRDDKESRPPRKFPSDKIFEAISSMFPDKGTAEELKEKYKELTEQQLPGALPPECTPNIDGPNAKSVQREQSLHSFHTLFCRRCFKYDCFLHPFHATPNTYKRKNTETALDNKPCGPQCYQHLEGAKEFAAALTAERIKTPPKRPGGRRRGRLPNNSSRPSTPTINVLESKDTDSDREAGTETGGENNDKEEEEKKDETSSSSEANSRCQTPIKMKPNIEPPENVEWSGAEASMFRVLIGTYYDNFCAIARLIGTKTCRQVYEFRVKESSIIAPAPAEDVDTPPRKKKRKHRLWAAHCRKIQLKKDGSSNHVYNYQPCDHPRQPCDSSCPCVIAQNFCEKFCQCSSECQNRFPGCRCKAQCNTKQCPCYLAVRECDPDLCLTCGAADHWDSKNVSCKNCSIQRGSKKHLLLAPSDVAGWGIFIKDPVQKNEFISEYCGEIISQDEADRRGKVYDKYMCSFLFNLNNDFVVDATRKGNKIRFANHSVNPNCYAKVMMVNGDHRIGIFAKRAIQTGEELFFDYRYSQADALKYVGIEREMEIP
- Sequence (O75530 whole entry partner): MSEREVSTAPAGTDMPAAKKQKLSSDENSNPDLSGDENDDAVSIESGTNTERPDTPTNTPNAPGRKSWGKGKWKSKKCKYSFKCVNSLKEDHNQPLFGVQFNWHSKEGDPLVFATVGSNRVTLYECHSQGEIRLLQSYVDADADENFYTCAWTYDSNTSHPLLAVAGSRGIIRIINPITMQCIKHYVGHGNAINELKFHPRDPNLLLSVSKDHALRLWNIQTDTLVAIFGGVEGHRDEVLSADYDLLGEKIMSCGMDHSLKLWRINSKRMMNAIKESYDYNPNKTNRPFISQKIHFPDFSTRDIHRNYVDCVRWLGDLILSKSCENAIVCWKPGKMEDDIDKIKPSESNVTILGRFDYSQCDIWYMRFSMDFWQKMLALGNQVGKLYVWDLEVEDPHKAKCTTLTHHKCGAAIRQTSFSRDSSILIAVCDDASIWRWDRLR
- Sequence (Q15022 whole entry partner): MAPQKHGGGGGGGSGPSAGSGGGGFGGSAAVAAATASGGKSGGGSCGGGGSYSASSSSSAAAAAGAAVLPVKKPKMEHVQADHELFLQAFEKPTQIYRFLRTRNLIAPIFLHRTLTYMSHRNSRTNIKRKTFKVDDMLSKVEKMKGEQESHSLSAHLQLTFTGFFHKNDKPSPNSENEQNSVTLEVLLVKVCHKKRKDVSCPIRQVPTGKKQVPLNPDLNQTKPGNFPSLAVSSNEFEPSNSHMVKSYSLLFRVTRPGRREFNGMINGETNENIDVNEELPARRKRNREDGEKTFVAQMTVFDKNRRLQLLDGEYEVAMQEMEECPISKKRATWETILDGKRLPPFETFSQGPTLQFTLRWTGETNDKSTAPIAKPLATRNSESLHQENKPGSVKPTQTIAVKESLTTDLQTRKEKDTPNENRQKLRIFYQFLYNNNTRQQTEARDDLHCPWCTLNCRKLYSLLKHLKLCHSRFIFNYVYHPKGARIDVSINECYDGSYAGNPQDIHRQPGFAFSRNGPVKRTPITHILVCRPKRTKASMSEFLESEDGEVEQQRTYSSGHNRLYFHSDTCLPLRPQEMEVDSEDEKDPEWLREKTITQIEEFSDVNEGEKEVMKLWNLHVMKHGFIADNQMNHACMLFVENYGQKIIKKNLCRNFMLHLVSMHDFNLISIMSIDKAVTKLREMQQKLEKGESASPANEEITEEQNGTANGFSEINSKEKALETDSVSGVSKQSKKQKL
- Protocol text: EZH2 assay: rPRC2, biotinylated oligonucleosomes, 3H SAM methyl transfer (FlashPlate scintillation)
- Format: biochemical
- Condition notes: wild-type EZH2 (rPRC2), biotinylated oligonucleosome substrate
Endpoint name: EZH2 IC50

>  <Compound>
Cc1cc(C)c(CNC(=O)c2cnn(CCc3ccccc3)c2C)c(O)n1

>  <EZH2 IC50>
*(10 μM)

$$$$
>  <Compound>
Cc1cc(C)c(CNC(=O)c2nn(C(C)c3ccccc3)c3ccccc23)c(O)n1 (stereo not drawn)

>  <EZH2 IC50>
*(10 μM)

$$$$
>  <Compound>
Cc1cc(C)c(CNC(=O)c2cnn(Cc3ccccc3)c2C)c(O)n1

>  <EZH2 IC50>
*(10 μM)

$$$$
>  <Compound>
Cc1cc(C)c(CNC(=O)c2c(-c3ccccc3)n(C(C)c3ccccc3)c3ccccc23)c(O)n1 (single isomer, unassigned) [Compound 446]

>  <EZH2 IC50>
*(10 uM)

$$$$

Query block: Item under review: Cc1cc(C)c(CNC(=O)c2c(-c3ccccc3)n(C(C)c3ccccc3)c3ccccc23)c(O)n1 (single isomer, unassigned) [Compound 445] . Reported EZH2 IC50?
Result block: *(10 uM)
